Target: Cholinesterase (Equus caballus, UniProt P81908)
Sequence (P81908 whole entry): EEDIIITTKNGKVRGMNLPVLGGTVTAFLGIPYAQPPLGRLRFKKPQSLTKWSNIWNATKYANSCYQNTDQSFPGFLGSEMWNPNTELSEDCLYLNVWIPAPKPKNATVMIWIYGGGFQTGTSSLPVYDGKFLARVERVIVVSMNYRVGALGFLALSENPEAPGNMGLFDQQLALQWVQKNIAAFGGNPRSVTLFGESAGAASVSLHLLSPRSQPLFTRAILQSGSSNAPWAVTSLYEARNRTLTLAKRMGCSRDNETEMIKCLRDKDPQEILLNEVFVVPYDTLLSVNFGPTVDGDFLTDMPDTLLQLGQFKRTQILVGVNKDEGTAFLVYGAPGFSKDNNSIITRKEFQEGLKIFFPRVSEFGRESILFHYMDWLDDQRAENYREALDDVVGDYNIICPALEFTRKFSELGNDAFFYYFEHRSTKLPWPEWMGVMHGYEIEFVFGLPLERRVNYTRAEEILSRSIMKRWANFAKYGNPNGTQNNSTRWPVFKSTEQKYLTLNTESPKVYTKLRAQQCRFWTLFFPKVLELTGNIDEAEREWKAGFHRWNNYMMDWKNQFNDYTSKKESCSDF
Assay: Inhibition of horse serum BuChE using butyrylthiocoline iodide as substrate incubated for 20 mins by Ellman method
VALUE TYPE: pIC50
Give bare numbers, as −log10 of the molar value.

// known answers, use as guide
SMILES DATA	pIC50
O=C1/C(=C/C2CCN(Cc3ccccc3)CC2)Cc2cccc(O)c21	5.32
COc1ccc2c(c1)C/C(=C\C1CCN(Cc3ccccc3)CC1)C2=O	5.24

Go through the list and state pIC50 for each entry.
1. COc1cccc(CN2CCC(/C=C3\Cc4cccc(OC)c4C3=O)CC2)c1
2. COc1cc2c(cc1OC)C(=O)/C(=C/C1CCN(Cc3ccccc3)CC1)C2
3. COc1cc2c(cc1O)C(=O)/C(=C/C1CCN(Cc3ccccc3)CC1)C2

[5.27, 5.32, 5.13]
